Reported PBM binding z-score by item:
# Test system: RARa:RXR (NR concentration 270 nM, RXRa partner concentration 90 nM)
# EXPERIMENT: PBM binding z-score (relative to random genomic background probes); higher = stronger binding; sequences stand for … in GC…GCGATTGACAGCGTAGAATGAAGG

Challenge: Consider the sequence ATCGAAATGTCGACGAGGTGAGTATACACCGTTT . State its measured PBM binding z-score.
Response given: 0.312

----------
# System: PPARg homodimer (NR concentration 180 nM)
# EXPERIMENT: PBM binding z-score (relative to random genomic background probes); higher = stronger binding; sequences stand for … in GC…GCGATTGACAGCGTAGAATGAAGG
# PBM binding z-score >= 0.8 gives MET, anything below gives NOT MET

Answered examples (5):
RESIDUE_CODES: TCGAGTAGGGTACCAATGGGGCATTCAGCTTTCT
CLASS_ASSIGNMENT: NOT MET
--
RESIDUE_CODES: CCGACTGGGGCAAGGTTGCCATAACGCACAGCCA
CLASS_ASSIGNMENT: NOT MET
--
RESIDUE_CODES: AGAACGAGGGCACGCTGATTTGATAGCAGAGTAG
CLASS_ASSIGNMENT: NOT MET
--
RESIDUE_CODES: CCTCCAAGGTCAATGCTAGGTCAGTGAAAGCATT
CLASS_ASSIGNMENT: MET
--
RESIDUE_CODES: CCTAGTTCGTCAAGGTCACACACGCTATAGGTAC
CLASS_ASSIGNMENT: MET

Challenge: Identify whether the reported PBM binding z-score of the following sequence is 0.8 or greater: TCTCGGAGGACACGAAAGGTCCGAGCTCGACATC
Response given: NOT MET

Challenge: Identify whether the reported PBM binding z-score of the following sequence is 0.8 or greater: GTATCAAGGTGAATAGGTCGTTGATGAGTAGGCG
Response given: MET

Challenge: Identify whether the reported PBM binding z-score of the following sequence is 0.8 or greater: CTACCAAGGTGAACATGGTCGTTGATTACTATTC
Response given: NOT MET

Challenge: Identify whether the reported PBM binding z-score of the following sequence is 0.8 or greater: TGAATGAGGTTAAAGATTAGGGAACGTGGCGTCG
Response given: NOT MET

Challenge: Identify whether the reported PBM binding z-score of the following sequence is 0.8 or greater: AGCCAAAGTTCACTAGGTAACGTAAGATTCAGCT
Response given: MET

----------
# Tested on: PPARg:RXRa IVT, anti-PPARg (NR concentration 270 nM, RXRa partner concentration 90 nM)
# EXPERIMENT: PBM binding z-score (relative to random genomic background probes); higher = stronger binding; sequences stand for … in GC…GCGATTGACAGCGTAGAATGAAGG
Reported PBM binding z-score by item:
Give the figure only, with no unit attached.

RESIDUE_CODES: CCAGACAGGAGAGAAGGTAACTCAGCCTCGATTA
PBM binding z-score: -0.372
--
RESIDUE_CODES: TCAGCTAGGTCAACGATGGTCAGCTAATCTGCTA
PBM binding z-score: 4.22
--
RESIDUE_CODES: CGTCAAAGTTCCACTAAGGTAACGTAAAGCACGC
PBM binding z-score: 0.925
--
RESIDUE_CODES: ATCGAAAGGTCGACGAGGTGCGTATACACCGTTT
PBM binding z-score: 1.41
--
RESIDUE_CODES: CCTGGTTGGTCAAGGTCACACACGCTATAGGTAC
PBM binding z-score: 3.26
--
RESIDUE_CODES: ATATGTAGGTTACAACCGGGTCATTCAGGCTATG
PBM binding z-score: 7.41

Challenge: System PPARg:RXRa IVT, anti-PPARg (NR concentration 270 nM, RXRa partner concentration 90 nM). Read-out PBM binding z-score. Item AGTCAATGTTCAGGACGAGGTAACGTAAAGCACG . Report value.
Response given: 0.526

Challenge: System PPARg:RXRa IVT, anti-PPARg (NR concentration 270 nM, RXRa partner concentration 90 nM). Read-out PBM binding z-score. Item CGTCAAAGTTCAACTAAGGTAATGTAAAGCACGC . Report value.
Response given: 2.28

Challenge: System PPARg:RXRa IVT, anti-PPARg (NR concentration 270 nM, RXRa partner concentration 90 nM). Read-out PBM binding z-score. Item ACTAGTTGGGCAGCTGAGGTCACACACAATTCGG . Report value.
Response given: 1.73

Challenge: System PPARg:RXRa IVT, anti-PPARg (NR concentration 270 nM, RXRa partner concentration 90 nM). Read-out PBM binding z-score. Item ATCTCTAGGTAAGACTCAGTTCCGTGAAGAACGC . Report value.
Response given: 0.672

Challenge: System PPARg:RXRa IVT, anti-PPARg (NR concentration 270 nM, RXRa partner concentration 90 nM). Read-out PBM binding z-score. Item ATCGAAAGGTCGAAGGTGTGTATACCCACCCGAA . Report value.
Response given: 1.67

Challenge: System PPARg:RXRa IVT, anti-PPARg (NR concentration 270 nM, RXRa partner concentration 90 nM). Read-out PBM binding z-score. Item CCGACTGGGGCTAAGGTTACCATACTCAGTACGA . Report value.
Response given: 2.11

Challenge: System PPARg:RXRa IVT, anti-PPARg (NR concentration 270 nM, RXRa partner concentration 90 nM). Read-out PBM binding z-score. Item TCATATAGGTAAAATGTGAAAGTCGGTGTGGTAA . Report value.
Response given: 2.51

Challenge: System PPARg:RXRa IVT, anti-PPARg (NR concentration 270 nM, RXRa partner concentration 90 nM). Read-out PBM binding z-score. Item ATCGAAAGGTCGGAGGTGAGTATACCCACCCGAA . Report value.
Response given: 1.78

Challenge: System PPARg:RXRa IVT, anti-PPARg (NR concentration 270 nM, RXRa partner concentration 90 nM). Read-out PBM binding z-score. Item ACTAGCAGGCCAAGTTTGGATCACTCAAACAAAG . Report value.
Response given: 0.181

Challenge: System PPARg:RXRa IVT, anti-PPARg (NR concentration 270 nM, RXRa partner concentration 90 nM). Read-out PBM binding z-score. Item TAGCCTTGGTCATGCGGGCCAGTATAGTGTCGGC . Report value.
Response given: 0.0959

Challenge: System PPARg:RXRa IVT, anti-PPARg (NR concentration 270 nM, RXRa partner concentration 90 nM). Read-out PBM binding z-score. Item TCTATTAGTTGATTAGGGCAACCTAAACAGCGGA . Report value.
Response given: 1.73

Challenge: System PPARg:RXRa IVT, anti-PPARg (NR concentration 270 nM, RXRa partner concentration 90 nM). Read-out PBM binding z-score. Item TCGAGTAGGTTAGGGGCAGTCAGAATGGCGTCGA . Report value.
Response given: 1.49

Challenge: System PPARg:RXRa IVT, anti-PPARg (NR concentration 270 nM, RXRa partner concentration 90 nM). Read-out PBM binding z-score. Item GACACAGGGTCAAGGCCAGAGTACGCGTATTGAT . Report value.
Response given: 3.61

Challenge: System PPARg:RXRa IVT, anti-PPARg (NR concentration 270 nM, RXRa partner concentration 90 nM). Read-out PBM binding z-score. Item ATCTCTAGGTAAAGATAGTTCAGTAAATGCAAAT . Report value.
Response given: 1.77

Challenge: System PPARg:RXRa IVT, anti-PPARg (NR concentration 270 nM, RXRa partner concentration 90 nM). Read-out PBM binding z-score. Item CCGAGTAGGTTATGGCGCATTCAGGCAACGGTGA . Report value.
Response given: 1.71

Challenge: System PPARg:RXRa IVT, anti-PPARg (NR concentration 270 nM, RXRa partner concentration 90 nM). Read-out PBM binding z-score. Item CAAACTAGGTTACAGAGGTCAAAGTCCGTGCGTA . Report value.
Response given: 7.64

Challenge: System PPARg:RXRa IVT, anti-PPARg (NR concentration 270 nM, RXRa partner concentration 90 nM). Read-out PBM binding z-score. Item GCTGACGGGTCAAAGGTTATAGCATGAATAGAAT . Report value.
Response given: 4.56

Challenge: System PPARg:RXRa IVT, anti-PPARg (NR concentration 270 nM, RXRa partner concentration 90 nM). Read-out PBM binding z-score. Item GGAACGAGGGCAAGTTGATAGCGGAGTTTGATGG . Report value.
Response given: 2.64

Challenge: System PPARg:RXRa IVT, anti-PPARg (NR concentration 270 nM, RXRa partner concentration 90 nM). Read-out PBM binding z-score. Item CGAACTAGGGCATTGACAGGACAGTGAATAGTAA . Report value.
Response given: 6.53

Challenge: System PPARg:RXRa IVT, anti-PPARg (NR concentration 270 nM, RXRa partner concentration 90 nM). Read-out PBM binding z-score. Item CGAACGACGGCATGAGTTGATAGCAAATGCCGAT . Report value.
Response given: -1.08
